# Test system: SK-MEL-28
# assay-text: NCI tumour cell line growth inhibition, 48 h
Active and inactive are the calls of the source. Rule as the data show it: active = GI50 up to about 1.1 µM and inactive = higher.
Classes used: T = active, F = inactive

compound | test-system | label-value
O=C1CCCCC/C1=C\c1ccc(Cl)cc1 | SK-MEL-28 | F
CNC1(C(=O)O)CC1 | SK-MEL-28 | F
COc1cc2nc3n(c(=O)c2cc1OC)-c1ccc([N+](=O)[O-])cc1C3=O | SK-MEL-28 | F
C=C(C)c1nc(Oc2ccccc2)nc(Oc2ccccc2)n1 | SK-MEL-28 | F
CCCCC(=O)OCC(=O)[C@]1(O)Cc2c(O)c3c(c(O)c2[C@@H](OC2CC(NC(=O)C(F)(F)F)C(O)C(C)O2)C1)C(=O)c1c(OC)cccc1C3=O (stereo partly specified) | SK-MEL-28 | F
CN(CCNC(=O)c1cn(C)c2c1ccc1cc(Cl)c(Cl)cc12)CCNC(=O)c1cn(C)c2c1ccc1cc(Cl)c(Cl)cc12 | SK-MEL-28 | F
CSc1c(CC(=O)O)n(Cc2ccccc2)c2ccccc12 | SK-MEL-28 | F
O=C1CCC2(c3ccc(Cl)cc3)Nc3cc(Cl)ccc3N12 (stereo unspecified) | SK-MEL-28 | F
Cc1cc(C)nc(NS(=O)(=O)c2ccc(Nc3nncc(=O)n3N)cc2)n1 | SK-MEL-28 | F
C[n+]1c2ccccc2c(N=[N+]=[N-])c2ccccc21 | SK-MEL-28 | F
O=C(O)C1=CCCc2ccc3ccccc3c21 | SK-MEL-28 | F
O=C1OC2C(O)C(=O)OC2C1O (stereo unspecified) | SK-MEL-28 | F
COC(=O)CNC(=O)/C=C/[C@H](O[Si](C)(C)C(C)(C)C)[C@H](/C=C/C(=O)NCC(=O)OC)O[Si](C)(C)C(C)(C)C | SK-MEL-28 | F
CCOc1ccc(/C(C=O)=C(\Cl)c2ccc(OC)c(OC)c2)cc1 | SK-MEL-28 | F
S=P1(c2ccccc2)Nc2ccc(Cl)cc2N1 (stereo unspecified) | SK-MEL-28 | F
CCCCCCCCCCCCCCCCCC(=O)OCC(CN(C)CCN(C)C)OC(=O)CCCCCCCCCCCCCCCCC (stereo unspecified) | SK-MEL-28 | F
C/C1=C\[C@H](C)C[C@H](C)OC(=O)[C@H](C)NC(=O)[C@@H](Cc2ccc(O)c(Br)c2)N(C)C(=O)[C@H](C)NC(=O)[C@@H](C)C1 | SK-MEL-28 | T
CCOC(CCCN1CCC2(CC1)C(=O)N(C)CN2c1ccccc1)(OCC)c1ccc(F)cc1 | SK-MEL-28 | F
COc1ccc(C2=CN3CCC[C@H]3C=C2c2cc(O)c(OC)c(OC)c2)cc1OC | SK-MEL-28 | T
O=c1c2cccnc2cc(-c2ccccc2)n1CCO | SK-MEL-28 | F
COC(=O)C1=C(O)C(C(=O)OC)[C@]2(O)[C@H](C(=O)OC)[C@H]1C[C@@H](c1ccc(O)cc1)[C@H]2C(=O)OC (stereo partly specified) | SK-MEL-28 | F
C#C[C@]1(O)CCC2C3CCc4cc(Oc5nc(F)nc(-c6c7cc8ccccc8cc7c7n6CCS7)n5)ccc4C3CCC21C (stereo partly specified) | SK-MEL-28 | F
CNS(=O)(=O)NNS(=O)(=O)c1ccccc1 | SK-MEL-28 | F
O=C1C(=O)C(Br)(Br)C(Br)=C1Br | SK-MEL-28 | F
CC1CC(=O)N(N(C)C)C(C#N)(C#N)C1(C#N)C#N (stereo unspecified) | SK-MEL-28 | F
CCOC(=O)/C(C#N)=C/c1ccc2c(-c3c(OCC)ccc4cc(/C=C(\C#N)C(=O)OCC)ccc34)c(OCC)ccc2c1 | SK-MEL-28 | F

* * *

# Test system: NCI-H460
# assay-text: NCI tumour cell line growth inhibition, 48 h
Calls of active or inactive are those of the source. No stated cut-off is given here; in the data, active = GI50 up to about 1.1 µM and inactive = higher.
Below: a set of entries, each annotated with reported GI50.

compound | test-system | GI50
CCNC(=O)C(O)C1(O)CCC2[C@@H]3CCC4=CC(=O)C=C[C@]4(C)C3[C@@H](O)C[C@@]21C (stereo not given in full) | NCI-H460 | > 100 µM (inactive)
COC(=O)[C@@H]1C[C@@]23CCCN4CC[C@@]5(c6cccc(OC)c6N(C=O)[C@]15CC2)[C@@H]43 | NCI-H460 | > 100 µM (inactive)
CC1(C(=O)NCCN(CCNC(=O)C2(C)CC3(C)CC(C)(C2)C(=O)NC3=O)CCNC(=O)C2(C)CC3(C)CC(C)(C2)C(=O)NC3=O)CC2(C)CC(C)(C1)C(=O)NC2=O (stereo not given) | NCI-H460 | > 100 µM (inactive)
CNS(=O)(=O)NNS(=O)(=O)c1ccccc1 | NCI-H460 | > 100 µM (inactive)
COC(=O)c1c(C)cccc1/C=C1/Cc2c(C)cccc2C1=O | NCI-H460 | 67.9 µM (inactive)

* * *

# System: SK-MEL-5
# assay-text: NCI tumour cell line growth inhibition, 48 h
Active and inactive are the calls of the source. Cut-off read from the data, not from the text of the source: active = GI50 up to about 1.1 µM and inactive = higher.
Outcome codes: active, inactive

molecule | label-value
CCOc1ccccc1C=C1c2ccccc2C(=O)c2ccccc21 | inactive
COc1ccc(CCCCl)c(C2=NCCc3ccccc32)c1 | inactive
S=c1nc2[nH]c3ccc(Br)cc3c2n[nH]1 | inactive
C=CC1(C)CCC2C(=CCC3C(C)(COC4OC(C(=O)O)C(O)C(O)C4O)C(O)CCC23C)C1.C=CC1(C)CCC2C(=CCC3C2(C)CC(O)C(O)C3(C)COC2OC(C(=O)O)C(O)C(O)C2O)C1 (stereo not drawn) | inactive
CC(O)c1cc2c(s1)C(=O)c1sccc1C2=O (stereo not drawn) | active
Cc1nc([N+](=O)[O-])cn1CC(=N)N | inactive
CC(=O)CSCc1ccccn1 | inactive
Fc1ccc(N2C(=S)SC(=N\c3ccccc3)/C2=N/c2ccccc2)cc1 | inactive

* * *

# Test system: A549
# assay-text: NCI tumour cell line growth inhibition, 48 h
The source made the active and inactive calls. Rule as the data show it: active = GI50 up to about 1.1 µM and inactive = higher.

compound | test-system | GI50
Cn1c(Sc2ccc(-c3cccnc3)n2C)ccc1-c1cccnc1 | A549 | 26.4 µM (inactive)
CO[C@H]1[C@H](O)[C@H](O[C@H]2CC[C@@]3(C)[C@H](CC[C@@H]4[C@@H]3CC[C@]3(C)[C@@H](C5=CC(=O)OC5)CC[C@]43O)C2)O[C@@H](C)[C@@H]1O [NERIIFOLIN] | A549 | 0.000379 µM (active)
O=C(/C=C/c1ccccc1O)c1ccccc1Cl | A549 | > 100 µM (inactive)
O=C1C/C(=N/c2ccc(Cl)cc2)C(c2ccccc2)N1c1ccccc1 (stereo not drawn) | A549 | 17.4 µM (inactive)
CCOC(=O)c1cn2c(n1)sc1cc(F)ccc12 | A549 | > 100 µM (inactive)
Cc1c(C(=O)O)n2cnnc2c2ccccc12 | A549 | > 100 µM (inactive)
CCN(CC)/N=N/c1c(C(N)=O)n[nH]c1C | A549 | 69 µM (inactive)
COc1cccc(NC(=O)CC(=O)N2N=C(N3c4ccccc4Sc4ccccc43)CC2c2ccccc2)c1 (stereo not drawn) | A549 | > 100 µM (inactive)
C=CC(C)(C)C(=C)C(=O)N(C)c1ccccc1I | A549 | > 100 µM (inactive)
CS(=O)(=O)O.[Ag] | A549 | 10.3 µM (inactive)
COC(=O)/C(=N\NC(C)(C)C)C(C(=O)OC)C(=O)C(=O)Nc1cc(Cl)ccc1Cl (stereo not drawn) | A549 | > 100 µM (inactive)
CC(C)(c1ccccc1)c1ccc(Oc2ccc3c(c2)-c2nc-3nc3[nH]c(nc4nc(nc5[nH]c(n2)c2ccc(Oc6ccc(C(C)(C)c7ccccc7)cc6)cc52)-c2cc(Oc5ccc(C(C)(C)c6ccccc6)cc5)ccc2-4)c2ccc(Oc4ccc(C(C)(C)c5ccccc5)cc4)cc32)cc1 | A549 | > 100 µM (inactive)
CCOC(=O)NC(=O)c1cn(CCOCCOC(=O)NCCCCCCNC(=O)OCCOCCn2cc(C(=O)NC(=O)OCC)c(=O)[nH]c2=O)c(=O)[nH]c1=O | A549 | > 100 µM (inactive)
CC1CN(c2ccc(Cl)cc2)CC(C)OC(=O)O1 (stereo not drawn) | A549 | > 100 µM (inactive)
O=C(N/N=C\c1ccc([N+](=O)[O-])cc1)Nc1ccc2ccccc2c1 | A549 | 43.8 µM (inactive)
CC(C)=CCC/C(=C/CC/C(=C\CCc1ccoc1)C(=O)O)C(=O)O | A549 | > 100 µM (inactive)
O=C(/C=N/c1ccccc1S)c1ccco1 | A549 | 5.11 µM (inactive)
COc1cc(/C=C/C(=O)Oc2ccc(NC(C)=O)cc2)ccc1C(=O)O/C=C/c1ccccc1 | A549 | > 100 µM (inactive)
CCOC(=O)Cc1ccc2c(c1O)C(=O)c1c(ccc(CC(=O)OCC)c1O)C2=O | A549 | > 100 µM (inactive)
C=C(CCCCC)CN1CCCC1[C@@](C)(O)CC(=O)OCC (stereo partly drawn) | A549 | > 100 µM (inactive)
COC(=O)c1c(C)cccc1CC1Cc2c(C)cccc2C1=O (stereo not drawn) | A549 | 28.4 µM (inactive)
O=C1/C(=C/c2cccc([N+](=O)[O-])c2)Sc2scc(-c3ccc([N+](=O)[O-])cc3)[n+]21 | A549 | 29.6 µM (inactive)
O=c1c2cccnc2cc(-c2ccccc2)n1CCO | A549 | > 100 µM (inactive)
COc1cc2nc3n(c(=O)c2cc1OC)-c1ccc([N+](=O)[O-])cc1C3=O | A549 | 52.7 µM (inactive)
O=C1c2c(c(-c3ccccc3)c(-c3ccccc3)c(-c3ccccc3)c2-c2ccccc2)C(=O)N1c1cccc(Br)c1 | A549 | > 100 µM (inactive)
COc1ccc(-c2nc(-c3ccc(OC)cc3)n(-c3ccccc3)n2)cc1 | A549 | 56.6 µM (inactive)
O=C(O)C1CCCCN1c1ccccc1[N+](=O)[O-] (stereo not drawn) | A549 | > 100 µM (inactive)
O=C1OC2C(O)C(=O)OC2C1O (stereo not drawn) | A549 | > 100 µM (inactive)
CCN(CC)c1nc(N(C)C)c2cc(OC)ccc2n1 | A549 | 27.9 µM (inactive)
CC(C)C(C/C=C1\CC(CO)(COC(=O)C(C)(C)C)OC1=O)C(C)C (stereo not drawn) | A549 | 4.42 µM (inactive)
CCCCCCCCCCCCCCCCCC(=O)OCC(CN(C)CCN(C)C)OC(=O)CCCCCCCCCCCCCCCCC (stereo not drawn) | A549 | 55.3 µM (inactive)
CC(=O)N1c2ccccc2N(C(C)=O)C1c1ccc(C2N(C(C)=O)c3ccccc3N2C(C)=O)[nH]1 | A549 | > 100 µM (inactive)
COC(=O)CCC(C)[C@H]1CCC2C3C(C[C@H](OC(C)=O)[C@@]21C)[C@@]1(C)CCC2(C[C@H]1C[C@H]3OC(C)=O)OOC1(CCCCC1)OO2 (stereo partly drawn) | A549 | 11.3 µM (inactive)
